Origin of values: patent US20240246946A1

Reported values of IC50 for individual entries
study_target: hTREX1 (Homo sapiens, UniProt Q9NSU2)
Sequence (Q9NSU2 whole entry): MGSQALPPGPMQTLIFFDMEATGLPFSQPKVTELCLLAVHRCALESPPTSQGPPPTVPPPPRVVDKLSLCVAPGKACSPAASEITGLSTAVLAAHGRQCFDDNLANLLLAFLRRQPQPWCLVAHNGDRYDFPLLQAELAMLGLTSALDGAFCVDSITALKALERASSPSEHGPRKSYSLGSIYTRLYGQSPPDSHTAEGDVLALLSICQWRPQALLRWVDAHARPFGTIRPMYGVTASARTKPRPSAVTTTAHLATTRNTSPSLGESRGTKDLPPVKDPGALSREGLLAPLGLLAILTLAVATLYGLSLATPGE
assay_remarks: hTREX1 HCT116 Cell Assay (HCT116 dual cells, Lucia luciferase reporter of Type I interferon induction)
applied_conditions: TREX1i 4 h before pBR322/BstNI transfection, read after 48 h
measured_property: IC50

compound	observed_measurement
CC(c1nc(C(=O)Nc2cnoc2)c(O)c(=O)n1C)C(c1cnn(CC2COC2)c1)c1cc(F)ccc1Cl (single isomer, unassigned)	> 100 nM
CC(c1nc(C(=O)Nc2cnoc2)c(O)c(=O)n1C)C(c1ccccc1Cl)c1cn(C)nc1F (single isomer, unassigned)	< 10 nM
CC(c1nc(C(=O)Nc2cnoc2)c(O)c(=O)n1C)C(c1cnn(C)c1)c1ccccc1C#N (single isomer, unassigned) [Example 2 D2E2]	> 100 nM
Cn1cc(C(c2ccccc2C#N)C(c2nc(C(=O)Nc3cnoc3)c(O)c(=O)n2C)C(F)(F)F)cn1 (single isomer, unassigned)	> 100 nM
CC(c1nc(C(=O)Nc2cnoc2)c(O)c(=O)n1C)C(c1ccccc1Cl)c1cnn(C)c1C#N (single isomer, unassigned) [Example 96 D1E1]	> 100 nM
CC(c1nc(C(=O)Nc2cnoc2)c(O)c(=O)n1C)C(c1cnn(CC(C)(C)C#N)c1)c1cc(F)ccc1Cl (single isomer, unassigned)	> 100 nM
CCn1cc(C(c2ccccc2C#N)C(C)c2nc(C(=O)Nc3cnoc3)c(O)c(=O)n2C)cn1 (single isomer, unassigned) [Example 13 D1E1]	< 10 nM
COCCn1ncc(C(c2cc(F)ccc2C#N)C(C)c2nc(C(=O)Nc3cnoc3)c(O)c(=O)n2C)c1C (single isomer, unassigned)	> 100 nM
CC(c1nc(C(=O)Nc2cnoc2)c(O)c(=O)n1C)C(c1cnn(C(C)C)c1)c1ccccc1C#N (single isomer, unassigned) [Example 105 D2E1]	> 100 nM
CC(c1nc(C(=O)Nc2cnoc2)c(O)c(=O)n1C)C(c1cnc(C(F)(F)F)cn1)c1ccccc1C#N (single isomer, unassigned) [Example 118 D1E1]	10 to 100 nM
Cc1nn(C)cc1C(c1cc(F)ccc1C#N)C(c1nc(C(=O)Nc2cnoc2)c(O)c(=O)n1C)C(F)(F)F (single isomer, unassigned)	10 to 100 nM
CC(c1nc(C(=O)Nc2cnoc2)c(O)c(=O)n1C)C(c1cnn(C(F)F)c1)c1ccccc1C#N (single isomer, unassigned) [Example 38 D2E2]	> 100 nM

----------
study_target: full length mouse TREX1 (Mus musculus)
Construct: N-terminally His-Tev tagged full length mouse TREX1; made in house; host or cells: E. coli
Sequence (Q91XB0 whole entry): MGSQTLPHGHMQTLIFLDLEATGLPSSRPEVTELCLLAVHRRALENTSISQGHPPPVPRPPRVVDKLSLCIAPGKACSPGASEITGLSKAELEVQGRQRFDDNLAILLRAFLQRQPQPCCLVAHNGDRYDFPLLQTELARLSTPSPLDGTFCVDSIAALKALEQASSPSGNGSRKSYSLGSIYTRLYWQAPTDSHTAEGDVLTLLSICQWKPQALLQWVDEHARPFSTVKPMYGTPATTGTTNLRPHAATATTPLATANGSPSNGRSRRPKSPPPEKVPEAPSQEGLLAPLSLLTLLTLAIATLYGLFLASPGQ
assay_remarks: mTREX1 Biochemical Assay (fluorescence, dsDNA substrate degradation)
applied_conditions: biochemical, read-out: mTREX1 IC50
Quick reference for IC50 among some molecules

molecule	IC50
Cc1nn(C)cc1C(c1ccccc1C#N)C(c1nc(C(=O)Nc2cnoc2)c(O)c(=O)n1C)C(F)(F)F (single isomer, unassigned) [Example 41 D2E2]	> 10 nM
Cc1ccc(C(c2ccccc2C#N)C(C)c2nc(C(=O)Nc3cnoc3)c(O)c(=O)n2C)cn1 (single isomer, unassigned) [Example 5 D1E2]	< 1 nM
CC(c1nc(C(=O)Nc2cnoc2)c(O)c(=O)n1C)C(c1ncn(C)n1)c1ccccc1C#N (single isomer, unassigned) [Example 51 D2E2]	> 10 nM
Cc1cc(C(c2ccccc2C#N)C(C)c2nc(C(=O)Nc3cnoc3)c(O)c(=O)n2C)n(C)n1 (single isomer, unassigned) [Example 63 D2E2]	> 10 nM
Cc1cnn(C(c2cc(F)ccc2Cl)C(C)c2nc(C(=O)Nc3cnoc3)c(O)c(=O)n2C)c1 (single isomer, unassigned) [Example 144 D1E1]	> 10 nM
CC(c1nc(C(=O)Nc2cnoc2)c(O)c(=O)n1C)C(c1ccccc1Cl)c1cnn(C)c1C#N (single isomer, unassigned) [Example 96 D1E1]	1 to 10 nM
